- System: Human coronavirus OC43
- experiment-description: microbe, parasite or virus in culture
- condition-set: Betacoronavirus 1, VR-1558, NCI-H460, 72 h
- Description: Antiviral activity against HCoV-OC43 VR-1558 infected in human NCI-H460 cells assessed as inhibition of viral growth incubated for 72 hrs by CCK-8 assay
parameter: pEC50
Worth noting: pEC50 values are minus log10 of concentrations stated in mol/L.

molecule: COc1ccc(C(=O)Nc2ccc(OC3CC(N(C)C)C3)c(C(F)(F)F)c2)cc1[N+](=O)[O-] (centres undefined)
system: Human coronavirus OC43
parameter: pEC50
observed-value: 4.71

For record CN1CCN(CCCNC(=O)C2CN(Cc3ccc(NC(=O)c4ccc(OCCCCl)c([N+](=O)[O-])c4)cc3C(F)(F)F)C2)CC1 the listed pEC50 is 4.73

* * *

# EC50 values compiled below
- System: Human coronavirus OC43
- experiment-description: microbe, parasite or virus in culture
- condition-set: Betacoronavirus 1, VR-1558, NCI-H460, 72 h
Numbers only; they are read as µM.

Observe how each entry below is paired with its result.
compound: CN(C)C1CC(Oc2ccc(NC(=O)c3ccc(OCCF)c([N+](=O)[O-])c3)cc2C(F)(F)F)C1 (stereo not drawn)
EC50 (µM): 1.79
//
compound: CN(C)C1CC(Oc2ccc(NC(=O)c3ccc(OCC(F)F)c([N+](=O)[O-])c3)cc2C(F)(F)F)C1 (stereo not drawn)
EC50 (µM): 2.58
//
compound: CCC(=O)Nc1cc(C(=O)Nc2ccc(CN3CC(N(C)C)C3)c(C(F)(F)F)c2)ccc1OCCCCl
EC50 (µM): 22.2
//
compound: CN1CCN(Cc2ccc(NC(=O)c3ccc(F)c(C(F)(F)F)c3)cc2C(F)(F)F)CC1
EC50 (µM): 4.15
//
compound: COc1ccc(C(=O)Nc2ccc(OC3CC(N(C)C)C3)cc2C(F)(F)F)cc1[N+](=O)[O-] (stereo not drawn)
EC50 (µM): 28.6
//
compound: CN(C)C1CN(Cc2ccc(NC(=O)c3ccc(OCCF)c([N+](=O)[O-])c3)cc2C(F)(F)F)C1
EC50 (µM): 2.93

# EC50 of CN(C)C1CC(Oc2ccc(NC(=O)c3ccc(OCCCl)c([N+](=O)[O-])c3)cc2C(F)(F)F)C1 (stereo not drawn) = 1.09

Item: CN1CCN(Cc2ccc(NC(=O)c3ccc(OCCCCl)c([N+](=O)[O-])c3)cn2)CC1 | EC50: 19.2

* * *

Overview of recorded selectivity ratio for various compounds
- experiment-description: in vitro
- condition-set: human, NCI-H460 cells
- Description: Selectivity index, ratio of CC50 for cytotoxicity against human NCI-H460 cells to EC50 for antiviral activity against HCoV-OC43 VR-1558 infected in human NCI-H460 cells
Response field accepts a number only; no unit should be typed.

compound: COc1ccc(C(=O)Nc2ccc(OC3CC(N(C)C)C3)cc2C(F)(F)F)cc1[N+](=O)[O-] (stereo not drawn)
parameter: selectivity ratio
observed-value: 3

Here is the next item to consider.
compound CN(C)C1CN(Cc2ccc(NC(=O)c3ccc(OCCF)c([N+](=O)[O-])c3)cc2C(F)(F)F)C1 , selectivity ratio observed: 25.7

* * *

Listed next: entries and their corresponding selectivity ratio.
- experiment-description: in vitro
- condition-set: human, NCI-H460 cells
The response must contain the number and no unit.

Entry CCC(=O)Nc1cc(C(=O)Nc2ccc(CN3CCN(C)CC3)nc2)ccc1OCCCCl — recorded selectivity ratio = 2

COc1ccc(C(=O)Nc2ccc(CN3CCN(C)CC3)c(C(F)(F)F)c2)cc1S(N)(=O)=O yielded selectivity ratio of 6.17

For record CN1CCN(CCCNC(=O)C2CN(Cc3ccc(NC(=O)c4ccc(OCCCCl)c([N+](=O)[O-])c4)cc3C(F)(F)F)C2)CC1 the listed selectivity ratio is 3.2

Form: molecule = CN(C)C1CC(Oc2ccc(NC(=O)c3ccc(O)c([N+](=O)[O-])c3)cc2C(F)(F)F)C1 (centres undefined) ; selectivity ratio = 7

* * *

# CC50 at 72 h values compiled below
- experiment-description: Cytotoxicity against human NCI-H460 cells incubated for 72 hrs by CCK-8 assay
Numbers only; they are read as µM.

Examples from the recorded data:
compound: COc1ccc(C(=O)Nc2ccc(OC3CC(N(C)C)C3)c(C(F)(F)F)c2)cc1[N+](=O)[O-] (stereo not drawn)
unit-descriptor: µM
CC50 at 72 h: 139

compound: CCC(=O)Nc1cc(C(=O)Nc2ccc(CN3CCN(C)CC3)nc2)ccc1OCCCCl
unit-descriptor: µM
CC50 at 72 h: 82.7

compound: CN1CCN(Cc2ccc(NC(=O)c3ccc(OCCCCl)c(NS(C)(=O)=O)c3)cc2C(F)(F)F)CC1
unit-descriptor: µM
CC50 at 72 h: 38.5

compound: CN1CCN(CCCNC(=O)C2CN(Cc3ccc(NC(=O)c4ccc(OCCCCl)c([N+](=O)[O-])c4)cc3C(F)(F)F)C2)CC1
unit-descriptor: µM
CC50 at 72 h: 59.1

According to the records, this compound CN(C)C1CN(Cc2ccc(NC(=O)c3ccc(OCC(F)F)c([N+](=O)[O-])c3)cc2C(F)(F)F)C1 displays CC50 at 72 h of 34.1

Record CN(C)C1CN(Cc2ccc(NC(=O)c3ccc(OCc4cc(C(F)(F)F)cc(C(F)(F)F)c4)c([N+](=O)[O-])c3)cc2C(F)(F)F)C1 . Reported CC50 at 72 h: 5.07

// CC50 at 72 h value for CN1CCN(Cc2ccc(NC(=O)c3ccc(OCCCCl)c([N+](=O)[O-])c3)cc2C#N)CC1 : 136

* * *

- experiment-description: in vitro
- condition-set: human, NCI-H460 cells
// boundary case: selectivity ratio equal to 5 maps to 0; strictly smaller maps to 1

compound: CN1CCN(Cc2ccc(NC(=O)c3ccc(OCCCCl)c(F)c3)cc2C(F)(F)F)CC1
category-label: 1

compound: CN(C)C1CN(Cc2ccc(NC(=O)c3ccc(OCCCCl)c([N+](=O)[O-])c3)cc2C(F)(F)F)C1
category-label: 0

compound: CN(C)C1CC(Oc2ccc(NC(=O)c3ccc(OCCCl)c([N+](=O)[O-])c3)cc2C(F)(F)F)C1 (stereo not drawn)
category-label: 0

compound: CN(C)C1CC(Oc2ccc(NC(=O)c3ccc(OCCC(F)(F)F)c([N+](=O)[O-])c3)cc2C(F)(F)F)C1 (stereo not drawn)
category-label: 0

compound: COc1ccc(C(=O)Nc2ccc(CN3CC(N(C)C)C3)c(C(F)(F)F)c2)cc1[N+](=O)[O-]
category-label: 0

compound: CN(C)C1CN(Cc2ccc(NC(=O)c3ccc(OCCCl)c([N+](=O)[O-])c3)cc2C(F)(F)F)C1
category-label: 0

Inquiry: Hi there! Is selectivity ratio for CN(C)C1CCN(Cc2ccc(NC(=O)c3ccc(OCCCCl)c([N+](=O)[O-])c3)cc2C(F)(F)F)CC1 below 5, do you know?
Reply text: 1

Inquiry: Does the reported selectivity ratio of the following compound sit strictly below 5? C=CCOc1ccc(C(=O)Nc2ccc(CN3CC(N(C)C)C3)c(C(F)(F)F)c2)cc1[N+](=O)[O-]
Reply text: 1

Inquiry: Here's an entry: COc1ccc(C(=O)Nc2ccc(CN3CCN(C)CC3)c(C(F)(F)F)c2)cc1[N+](=O)[O-] . Is its selectivity ratio below 5?
Reply text: 0

Inquiry: Lab note: confirm whether the reported selectivity ratio for this compound is below 5, equality not counting. compound: CN1CCN(Cc2ccc(NC(=O)c3ccc(OCCF)c([N+](=O)[O-])c3)cc2C(F)(F)F)CC1
Reply text: 0

Inquiry: Is selectivity ratio of CC1CN(Cc2ccc(NC(=O)c3ccc(OCCCCl)c([N+](=O)[O-])c3)cc2C(F)(F)F)CC(C)O1 (stereo not drawn) strictly below 5?
Reply text: 1

Inquiry: Does the reported selectivity ratio of CN(C)C1CC(Oc2ccc(NC(=O)c3ccc(OCc4cc(C(F)(F)F)cc(C(F)(F)F)c4)c([N+](=O)[O-])c3)cc2C(F)(F)F)C1 (stereo not drawn) stay below 5?
Reply text: 1

Inquiry: In the record for CC(C)C(=O)OC[C@H]1O[C@@H](n2ccc(NO)nc2=O)[C@H](O)[C@@H]1O , is selectivity ratio less than 5?
Reply text: 0

Inquiry: Please determine if CN1CCN(Cc2ccc(NC(=O)c3ccc(OCCCCl)c(NS(C)(=O)=O)c3)cc2C(F)(F)F)CC1 is below 5 in terms of selectivity ratio.
Reply text: 1

Inquiry: Does the reported selectivity ratio of CN1CCN(Cc2ccc(NC(=O)c3ccc(F)c(C(F)(F)F)c3)cc2C(F)(F)F)CC1 stay below 5?
Reply text: 1

Inquiry: Given the entry CN(C)C1CN(Cc2ccc(NC(=O)c3ccc(OCC(F)F)c([N+](=O)[O-])c3)cc2C(F)(F)F)C1 , would its reported selectivity ratio be below 5?
Reply text: 0

Inquiry: Item CCC(=O)Nc1cc(C(=O)Nc2ccc(CN3CC(N(C)C)C3)c(C(F)(F)F)c2)ccc1OCCCCl : selectivity ratio beneath 5, strictly?
Reply text: 1

Inquiry: Dear reviewer, please state whether CN1CCN(Cc2ccc(NC(=O)c3ccc(OCCCF)c([N+](=O)[O-])c3)cc2C(F)(F)F)CC1 has selectivity ratio strictly beneath 5.
Reply text: 0

Inquiry: Is 5 strictly greater than the compound's reported selectivity ratio? compound: CN(C)C1CCN(Cc2ccc(NC(=O)c3ccc(OCC4CC4)c([N+](=O)[O-])c3)cc2C(F)(F)F)CC1
Reply text: 0

Inquiry: Answer whether the compound CN(C)C1CN(Cc2ccc(NC(=O)c3ccc(OCC45CC6CC(CC(C6)C4)C5)c([N+](=O)[O-])c3)cc2C(F)(F)F)C1 has selectivity ratio strictly less than 5
Reply text: 1

Inquiry: Report whether reported selectivity ratio is lower than 5 (strictly) for CN1CCN(Cc2ccc(NC(=O)c3ccc(OCCCCl)c(S(=O)(=O)O)c3)cc2C(F)(F)F)CC1
Reply text: 0

Inquiry: Record CCOc1ccc(C(=O)Nc2ccc(CN3CC(N(C)C)C3)c(C(F)(F)F)c2)cc1[N+](=O)[O-] : is its selectivity ratio strictly below 5?
Reply text: 0

Inquiry: Hi there! Is selectivity ratio for CN1CCN(Cc2ccc(NC(=O)c3ccc(OCCCCl)c(C(F)(F)F)c3)cc2C(F)(F)F)CC1 below 5, do you know?
Reply text: 1

Inquiry: For CC(C)Oc1ccc(C(=O)Nc2ccc(CN3CCN(C)CC3)c(C(F)(F)F)c2)cc1[N+](=O)[O-] , is the recorded selectivity ratio below the cut-off of 5?
Reply text: 0

Inquiry: selectivity ratio under 5? Item: Cc1ccc(NC(=O)c2ccc(OCCCCl)c([N+](=O)[O-])c2)cc1C(F)(F)F
Reply text: 0
